# MEASUREMENT PROTOCOL: Pharmacokinetic study of the inhibitors in mice blood plasma (PO and IV)
# Assay type: in vivo
# EXPERIMENTAL PARAMETERS: mouse, plasma, po, 30 mg/kg, PO 30 mg/kg, 2 h, read-out: Concentration in Plasma, Mouse 2
# Description: Pharmacokinetic Study of the Inhibitors in Mice Blood Plasma The blood plasma concentration of compounds A1, A2, and A4 in mice was determined following per os, oral compound administration (“PO”) and intravenous (“IV”) administration Calibration curve. The concentration range was evaluated from 2.5-5000 ng/ml for compound A2, 1-5000 ng/ml for compound A4, and 5-5000 ng/ml for compound A1. The curve was built with linear regression with weighing (1/X2). […]
REPORTED METRIC: concentration at 2 h (ng/mL)
# number only, unit ng/mL dropped from output

Endpoint output: concentration at 2 h of COc1cccc(CNc2ccc(S(=O)(=O)Nc3cccc(C4(C(F)(F)F)CC4)c3)cc2)c1O [Compound A4] . Value?
642
